All figures here come from paper PMC11083775.

Biological target: UniProt P00489
Sequence (P00489 1-843): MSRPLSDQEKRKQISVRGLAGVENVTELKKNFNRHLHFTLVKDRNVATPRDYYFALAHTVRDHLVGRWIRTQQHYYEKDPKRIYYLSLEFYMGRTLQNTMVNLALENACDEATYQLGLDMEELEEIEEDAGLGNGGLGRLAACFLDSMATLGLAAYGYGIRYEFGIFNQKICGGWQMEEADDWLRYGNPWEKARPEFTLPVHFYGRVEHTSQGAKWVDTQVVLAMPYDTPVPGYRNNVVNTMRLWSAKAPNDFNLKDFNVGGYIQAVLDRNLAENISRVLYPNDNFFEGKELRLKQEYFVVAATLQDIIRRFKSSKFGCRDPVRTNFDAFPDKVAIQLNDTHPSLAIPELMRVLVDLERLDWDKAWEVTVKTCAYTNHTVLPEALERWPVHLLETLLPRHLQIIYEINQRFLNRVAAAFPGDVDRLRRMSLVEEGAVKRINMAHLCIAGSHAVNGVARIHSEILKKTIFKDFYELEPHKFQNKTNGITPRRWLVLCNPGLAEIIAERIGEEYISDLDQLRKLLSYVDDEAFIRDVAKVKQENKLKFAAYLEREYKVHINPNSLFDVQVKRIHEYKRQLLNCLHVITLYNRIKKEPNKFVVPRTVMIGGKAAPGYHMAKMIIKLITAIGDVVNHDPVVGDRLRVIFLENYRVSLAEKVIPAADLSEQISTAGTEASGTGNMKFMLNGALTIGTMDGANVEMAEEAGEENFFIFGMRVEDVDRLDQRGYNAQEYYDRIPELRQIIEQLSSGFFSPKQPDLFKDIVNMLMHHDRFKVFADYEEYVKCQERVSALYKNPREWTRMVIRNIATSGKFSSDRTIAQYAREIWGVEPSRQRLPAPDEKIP
Experiment: Kinetics of rabbit muscle GPb inhibition, assayed in the direction of glycogen synthesis
Type: biochemical
Conditions: 10 μg/mL enzyme, glucose-1-phosphate 4–40 mM, 1% glycogen, 1 mM AMP, at least three independent experiments, ± SD, read-out: Inhibition constant (Ki)
pKi: −log10 of the molar value.

>  <Sample smiles>
O=C(N[C@@H]1O[C@H](CO)[C@@H](O)[C@H](O)[C@H]1O)c1ncc(-c2cccc3ccccc23)[nH]1

>  <pKi>
5.39

$$$$
>  <Sample smiles>
O=C(N[C@@H]1O[C@H](CO)[C@@H](O)[C@H](O)[C@H]1O)c1ncc(-c2ccc3ccccc3c2)[nH]1

>  <pKi>
5.48

$$$$
>  <Sample smiles>
O=C(N[C@@H]1O[C@H](CO)[C@@H](O)[C@H](O)[C@H]1O)c1ncc(-c2ccccc2)[nH]1

>  <pKi>
4.17

$$$$
>  <Sample smiles>
O=C(N[C@@H]1O[C@H](CO)[C@@H](O)[C@H](O)[C@H]1O)c1cnc(-c2ccc3ccccc3c2)[nH]1

>  <pKi>
4.89

$$$$
>  <Sample smiles>
O=C(N[C@@H]1O[C@H](CO)[C@@H](O)[C@H](O)[C@H]1O)c1cnc(-c2cccc3ccccc23)[nH]1

>  <pKi>
4.79

$$$$
>  <Sample smiles>
O=C(N[C@@H]1O[C@H](CO)[C@@H](O)[C@H](O)[C@H]1O)c1cnc(-c2ccccc2)[nH]1

>  <pKi>
4.98

$$$$
